- assay.notes: Fraction unbound in mouse plasma at 10 uM after 5 hrs by rapid equilibrium dialysis method
- Type: ADME, cell-free
Exercise: for every item that follows, state its recorded fraction unbound at 5 h, 10 µM.
One number for each entry.

| structure.as.smiles | obs.value |
| --- | --- |
| CC[C@H](c1ccc(C(=O)O)c(Oc2cccc(Cl)c2)c1OC)N1CCC[C@H](n2cc(C)c(=O)[nH]c2=O)C1 | 0.006 |
| Cc1cn([C@H]2CCCN([C@@H](CC(C)C)c3ccc(C(=O)O)c(Oc4cccc(Cl)c4)c3F)C2)c(=O)[nH]c1=O | 0.005 |
| CC[C@@H](c1ccc(C(=O)O)c(Oc2cccc(Cl)c2)c1OC)N1CCC[C@H](n2cc(C)c(=O)[nH]c2=O)C1 | 0.011 |

Sure, the documented fraction unbound at 5 h, 10 µM for CCC[C@@H](c1ccc(C(=O)O)c(Oc2cccc(Cl)c2)c1F)N1CCC[C@H](n2cc(C)c(=O)[nH]c2=O)C1 is 0.007
